assay remarks: Delivery vehicle size and polydispersity by dynamic light scattering
Type: physicochemical
assay context: formulation recipe D22
Starred links: 1 amine or outer side, 2 acyl side, 3 side chain; linkers in the order of their positions; H or OH if unused. Non-standard residues stand in square brackets, D forms with d. Residues, ends and D or L forms follow the SMILES beside them. *: point of attachment. Gly(N-(3-decanoyloxypropyl)) = CCCCCCCCCC(=O)OCCCNCC(=O)O; N(3-lauroyloxypropyl)Gly = CCCCCCCCCCCC(=O)OCCCNCC(=O)O; N(2-decanoyloxyethyl)Gly = CCCCCCCCCC(=O)OCCNCC(=O)O; Gly(N-(CH2)3O-octanoyl) = CCCCCCCC(=O)OCCCNCC(=O)O; N(3-imidazol-1-ylpropyl)Gly = O=C(O)CNCCCn1ccnc1; Gly(N-3-morpholinopropyl) = O=C(O)CNCCCN1CCOCC1; N(2-ethylhexyl)Gly = CCCCC(CC)CNCC(=O)O; X1 = CCCCC(CC)CSSCCN(CC(=O)[*:2])[*:1]; N(CH(CH2OH)2)Gly = O=C(O)CNC(CO)CO; N(octyl)Gly = CCCCCCCCNCC(=O)O; NDecylGly = CCCCCCCCCCNCC(=O)O; For = O=C*
result type: Particle Size (nm)
Write the value in nm as a bare number.

Below, 6 compounds whose answers are already recorded.
- CCCCCCCCCC(=O)OCCCN(CC(=O)N(CC(=O)N(CC(=O)N(CCCOC(=O)CCCCCCCCC)CC(=O)N(CC(N)=O)CC(CC)CCCC)CC(CC)CCCC)CC(CC)CCCC)C(=O)CN(CC(CC)CCCC)C(=O)CNC(CO)CO (stereo not drawn) [Compound 5] (H-[N(CH(CH2OH)2)Gly][N(2-ethylhexyl)Gly][Gly(N-(3-decanoyloxypropyl))][N(2-ethylhexyl)Gly][N(2-ethylhexyl)Gly][Gly(N-(3-decanoyloxypropyl))][N(2-ethylhexyl)Gly]-NH2): 86.2
- CCCCCCCCCC(=O)OCCN(CC(=O)N(CCOC(=O)CCCCCCCCC)CC(=O)N(CC(=O)N(CCOC(=O)CCCCCCCCC)CC(=O)N(CCOC(=O)CCCCCCCCC)CC(=O)N(CC(N)=O)CC(CC)CCCC)CC(CC)CCCC)C(=O)CN(C=O)CCCN1CCOCC1 (stereo not drawn) [Compound 76] (For-[Gly(N-3-morpholinopropyl)][N(2-decanoyloxyethyl)Gly][N(2-decanoyloxyethyl)Gly][N(2-ethylhexyl)Gly][N(2-decanoyloxyethyl)Gly][N(2-decanoyloxyethyl)Gly][N(2-ethylhexyl)Gly]-NH2): 75.4
- CCCCCCCCCC(=O)OCCN(CC(N)=O)C(=O)CN(CCOC(=O)CCCCCCCCC)C(=O)CN(CC(CC)CCCC)C(=O)CN(CCOC(=O)CCCCCCCCC)C(=O)CN(CCOC(=O)CCCCCCCCC)C(=O)CN(CC(CC)CCCC)C(=O)CNC(CO)CO (stereo not drawn) [Compound 105] (H-[N(CH(CH2OH)2)Gly][N(2-ethylhexyl)Gly][N(2-decanoyloxyethyl)Gly][N(2-decanoyloxyethyl)Gly][N(2-ethylhexyl)Gly][N(2-decanoyloxyethyl)Gly][N(2-decanoyloxyethyl)Gly]-NH2): 75.9
- CCCCCCCCCC(=O)OCCCN(CC(=O)N(CC(N)=O)CC(CC)CCCC)C(=O)CN(CCCCCCCC)C(=O)CN(CC(CC)CCCC)C(=O)CN(CCCOC(=O)CCCCCCCCC)C(=O)CN(CCCCCCCC)C(=O)CNC(CO)CO (stereo not drawn) [Compound 32] (H-[N(CH(CH2OH)2)Gly][N(octyl)Gly][Gly(N-(3-decanoyloxypropyl))][N(2-ethylhexyl)Gly][N(octyl)Gly][Gly(N-(3-decanoyloxypropyl))][N(2-ethylhexyl)Gly]-NH2): 89.3
- CCCCCCCCCCCC(=O)OCCCN(CC(=O)N(CC(=O)N(CCCn1ccnc1)CC(=O)N(CC(=O)N(CCCOC(=O)CCCCCCCCCCC)CC(=O)N(CC(N)=O)CC(CC)CCCC)CC(CC)CCCC)CC(CC)CCCC)C(=O)CN(C=O)CC(CC)CCCC (stereo not drawn) [Compound 82] (For-[N(2-ethylhexyl)Gly][N(3-lauroyloxypropyl)Gly][N(2-ethylhexyl)Gly][N(3-imidazol-1-ylpropyl)Gly][N(2-ethylhexyl)Gly][N(3-lauroyloxypropyl)Gly][N(2-ethylhexyl)Gly]-NH2): 81.5
- CCCCCCCC(=O)OCCCN(CC(=O)N(CCCOC(=O)CCCCCCC)CC(=O)N(CCSSCC(CC)CCCC)CC(=O)N(CCCOC(=O)CCCCCCC)CC(=O)N(CCCOC(=O)CCCCCCC)CC(=O)N(CCSSCC(CC)CCCC)CC(N)=O)C(=O)CNC(CO)CO (stereo not drawn) [Compound 128] (H-[N(CH(CH2OH)2)Gly][Gly(N-(CH2)3O-octanoyl)][Gly(N-(CH2)3O-octanoyl)][X1][Gly(N-(CH2)3O-octanoyl)][Gly(N-(CH2)3O-octanoyl)][X1]-NH2): 62.1

The reported value for CCCCCCCCCCCC(=O)OCCCN(CC(=O)N(CC(N)=O)CC(CC)CCCC)C(=O)CN(CCCCCCCC)C(=O)CN(CC(CC)CCCC)C(=O)CN(CCCOC(=O)CCCCCCCCCCC)C(=O)CN(CCCCCCCC)C(=O)CN(C=O)CCCN1CCOCC1 (stereo not drawn) [Compound 74] (For-[Gly(N-3-morpholinopropyl)][N(octyl)Gly][N(3-lauroyloxypropyl)Gly][N(2-ethylhexyl)Gly][N(octyl)Gly][N(3-lauroyloxypropyl)Gly][N(2-ethylhexyl)Gly]-NH2) in terms of Particle Size is 87.1

The reported value for CCCCCCCCCCN(CC(=O)N(CC(=O)N(CCCOC(=O)CCCCCCCCC)CC(N)=O)CC(CC)CCCC)C(=O)CN(CC(CC)CCCC)C(=O)CN(CCCOC(=O)CCCCCCCCC)C(=O)CN(CC(CC)CCCC)C(=O)CNC(CO)CO (stereo not drawn) [Compound 58] (H-[N(CH(CH2OH)2)Gly][N(2-ethylhexyl)Gly][Gly(N-(3-decanoyloxypropyl))][N(2-ethylhexyl)Gly][NDecylGly][N(2-ethylhexyl)Gly][Gly(N-(3-decanoyloxypropyl))]-NH2) in terms of Particle Size is 70.4

The reported value for CCCCCCCCCCCC(=O)OCCCN(CC(=O)N(CC(=O)N(CCCN1CCOCC1)CC(=O)N(CC(=O)N(CCCOC(=O)CCCCCCCCCCC)CC(=O)N(CC(N)=O)CC(CC)CCCC)CC(CC)CCCC)CC(CC)CCCC)C(=O)CN(C=O)CC(CC)CCCC (stereo not drawn) [Compound 80] (For-[N(2-ethylhexyl)Gly][N(3-lauroyloxypropyl)Gly][N(2-ethylhexyl)Gly][Gly(N-3-morpholinopropyl)][N(2-ethylhexyl)Gly][N(3-lauroyloxypropyl)Gly][N(2-ethylhexyl)Gly]-NH2) in terms of Particle Size is 78.1
